We begin with a simple list: items and their reported pIC50.
test: Inhibition of PI3Kdelta (1 to 1044)/6xHis-tagged p85 (1 to 724) (unknown origin) using diC8-PIP2 as substrate preincubated for 30 mins followed by substrate addition measured after 45 to 60 mins; design: species or system Homo sapiens
property_name: pIC50

# compound, quantitative_readout
measured = [
    ("COc1ncc(-c2ccc3nc(N)n(-c4ccccc4)c(=O)c3c2)cc1NS(=O)(=O)c1ccccc1C", 7.6),
    ("COc1ccc(-c2ccc3nc(N)n(-c4ccccc4)c(=O)c3c2)cc1NS(=O)(=O)c1ccc(F)cc1F", 5.4),
    ("COc1ncc(-c2ccc3nc(N)n(-c4cccc(C(F)(F)F)c4)c(=O)c3c2)cc1S(=O)(=O)Nc1ccc(F)cc1F", 6),
    ("COc1ncc(-c2ccc3nc(N)n(-c4ccccc4)c(=O)c3c2)cc1NS(=O)(=O)c1ccccc1", 7.7),
    ("COc1ncc(-c2ccc3nc(N)n(-c4ccccc4)c(=O)c3c2)cc1NS(C)(=O)=O", 6.6),
    ("COc1ncc(-c2ccc3nc(N)n(-c4ccccc4)c(=O)c3c2)cc1NS(=O)(=O)c1cccnc1", 8.5),
    ("COc1ncc(-c2ccc3nc(N)c(-c4ccccc4)nc3c2)cc1NS(=O)(=O)c1ccc(F)cc1F", 7.8),
    ("CCn1c(N)nc2ccc(-c3cnc(OC)c(S(=O)(=O)Nc4ccc(F)cc4F)c3)cc2c1=O", 6.8),
    ("COc1ncc(-c2ccc3ncnc(N4CCOCC4)c3c2)cc1NS(=O)(=O)c1ccc(F)cc1F", 8.9),
    ("COc1ncc(-c2ccc3nc(N)n(-c4ccccc4C(C)C)c(=O)c3c2)cc1S(=O)(=O)Nc1ccc(F)cc1F", 5.6),
    ("COc1ncc(-c2ccc3nc(N)c(-c4ccccc4)cc3n2)cc1NS(=O)(=O)c1ccc(F)cc1F", 4.9),
    ("COc1ncc(-c2ccc3nc(N)n(-c4ccccc4C(F)(F)F)c(=O)c3c2)cc1S(=O)(=O)Nc1ccc(F)cc1F (atropisomer aS)", 5.6),
    ("COc1ncc(-c2ccc3nc(N)n(-c4ccccc4)c(=O)c3c2)cc1NS(=O)(=O)c1ccc(F)cc1F", 8.2),
    ("COc1ncc(-c2ccc3nc(N)n(-c4ccccc4C(F)(F)F)c(=O)c3c2)cc1S(=O)(=O)Nc1ccc(F)cc1F", 5.5),
    ("COc1ncc(-c2ccc3nc(N)n(-c4ccc(C(F)(F)F)cc4)c(=O)c3c2)cc1S(=O)(=O)Nc1ccc(F)cc1F", 6.4),
    ("COc1ncc(-c2ccc3nc(N)n(-c4ccccc4)c(=O)c3c2)cc1S(=O)(=O)Nc1ccc(F)cc1F", 6.3),
    ("COc1ncc(-c2ccc3nc(N)n(C4CCOCC4)c(=O)c3c2)cc1S(=O)(=O)Nc1ccc(F)cc1F", 6.6),
]

The measurements presented in this section are drawn from ChEMBL document CHEMBL3120088.
